Tested on: MCF7 breast
Measurement protocol: NCI tumour cell line growth inhibition, 48 h
Property label: GI50

molecule=C#Cc1cccc(Nc2ncnc3ccc(-c4cnc(N)nc4)cc23)c1 result="1.8 µM"
molecule=Cc1cc2oc(=O)cc(OC/C=C3/CCC(=O)O3)c2cc1C result="2.25 µM"
molecule=Cc1ccc2c(c1)C(=O)/C(=C/c1cccc(OCC(=O)c3ccc(Cl)cc3)c1)CS2 result="3 µM"
molecule=CN(C)c1ccc(/C=N/n2c(CCCCc3n[nH]c(=S)n3/N=C/c3ccc(N(C)C)cc3)n[nH]c2=S)cc1 result="> 100 µM"
molecule=CCN(CC)CCNc1ccc(N=Nc2cnc3ccccc3c2)c2ccccc12 result="1.37 µM"
molecule=Cn1c2ccccc2c2c(=O)n(CCCC(=O)NCCc3cnc[nH]3)c3c(-c4ccccc4)nnn3c21 result="13 µM"
molecule="C=C1C(=O)O[C@H]2[C@H]1CC/C(CNC(=O)C(C)c1ccc(CC(C)C)cc1)=C\\CC[C@@]1(C)O[C@@H]21 (some centres undefined)" result="1.62 µM"
molecule=CCCCCCCCCCCCSC1=CC(=O)C=CC1=O result="2.22 µM"
molecule=NS(=O)(=O)c1ccc(-n2nc(-c3ccccc3)cc2-c2cc(O)ccc2O)cc1 result="69.4 µM"
molecule="O=C1NC(c2cccc3ccccc23)Nc2ccccc21 (centres undefined)" result="0.284 µM"
molecule=COc1ccc(Cl)cc1Nc1nc(C(F)(F)F)ccc1C(=O)N/N=C/c1ccccc1Cl result="1.04 µM"
molecule="N#Cc1ccc(O)c(C2=NCC(c3ccc(-c4ccccc4)cc3)O2)c1 (centres undefined)" result="0.343 µM"
molecule=O=c1oc2ccc(I)cc2c(=O)n1-c1ccc(I)cc1F result="1.08 µM"
molecule=COc1ccc(C(=O)/C=C/c2c(C(F)(F)F)nc3ccccn23)cc1OC result="0.518 µM"
